Cited source for all entries: patent US12630537B2

Biological target: THR beta (Homo sapiens, UniProt P10828)
Sequence (P10828 whole entry): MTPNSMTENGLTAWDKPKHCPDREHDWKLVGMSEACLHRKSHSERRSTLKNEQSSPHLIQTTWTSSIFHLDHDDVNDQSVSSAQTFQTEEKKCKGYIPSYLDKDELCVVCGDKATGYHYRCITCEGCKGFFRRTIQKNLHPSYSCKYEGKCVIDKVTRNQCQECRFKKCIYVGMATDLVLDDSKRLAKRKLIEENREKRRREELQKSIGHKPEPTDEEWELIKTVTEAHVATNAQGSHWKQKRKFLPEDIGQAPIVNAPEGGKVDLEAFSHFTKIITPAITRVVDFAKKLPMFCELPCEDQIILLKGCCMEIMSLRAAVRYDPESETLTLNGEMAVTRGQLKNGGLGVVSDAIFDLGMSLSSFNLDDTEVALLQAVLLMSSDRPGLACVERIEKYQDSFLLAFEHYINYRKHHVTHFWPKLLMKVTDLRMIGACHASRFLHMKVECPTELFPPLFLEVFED
Sequence (P19793 whole entry partner): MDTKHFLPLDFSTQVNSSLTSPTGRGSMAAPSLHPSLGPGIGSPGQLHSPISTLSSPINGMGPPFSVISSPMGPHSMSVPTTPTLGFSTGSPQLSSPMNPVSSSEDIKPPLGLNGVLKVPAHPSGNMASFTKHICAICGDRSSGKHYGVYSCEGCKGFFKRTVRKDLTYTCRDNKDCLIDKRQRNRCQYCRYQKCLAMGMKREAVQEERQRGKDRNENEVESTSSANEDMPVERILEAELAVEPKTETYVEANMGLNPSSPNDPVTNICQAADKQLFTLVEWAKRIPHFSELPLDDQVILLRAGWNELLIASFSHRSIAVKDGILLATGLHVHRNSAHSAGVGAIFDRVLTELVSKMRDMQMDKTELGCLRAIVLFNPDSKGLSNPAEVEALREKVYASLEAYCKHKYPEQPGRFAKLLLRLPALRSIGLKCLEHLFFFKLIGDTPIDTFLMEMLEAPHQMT
Assay: HEK293T THRbeta/RXR luciferase reporter assay
Conditions: HEK293T TRE-luciferase reporter, 18-24 h; read-out: EC50 THR-β (HEK 293 Activity)
Description: The purpose of this assay is to evaluate the effect of compounds on the thyroid hormone nuclear receptor pathway in HEK293T cells. […] Transfected cells are stimulated with test compounds for 18-24 hours before activation of the thyroid hormone pathway is measured via a luciferase read-out. Procedure. […] Percent agonism was calculated using the following equation: 100×(sample−negative control)/(positive control−negative control).

Compound	Reading unit	EC50
CC(c1cc(Oc2c(Cl)cc(-n3nc(N)c(=O)[nH]c3=O)cc2Cl)n[nH]c1=O)C1CC1 (single isomer, unassigned)	nM	38
